These data points were gathered from paper PMC6222329.

tgt: BChE (Human) (Homo sapiens)
Construct: purchased Sigma-Aldrich (Steinheim, Germany)
Sequence (P06276 29-602): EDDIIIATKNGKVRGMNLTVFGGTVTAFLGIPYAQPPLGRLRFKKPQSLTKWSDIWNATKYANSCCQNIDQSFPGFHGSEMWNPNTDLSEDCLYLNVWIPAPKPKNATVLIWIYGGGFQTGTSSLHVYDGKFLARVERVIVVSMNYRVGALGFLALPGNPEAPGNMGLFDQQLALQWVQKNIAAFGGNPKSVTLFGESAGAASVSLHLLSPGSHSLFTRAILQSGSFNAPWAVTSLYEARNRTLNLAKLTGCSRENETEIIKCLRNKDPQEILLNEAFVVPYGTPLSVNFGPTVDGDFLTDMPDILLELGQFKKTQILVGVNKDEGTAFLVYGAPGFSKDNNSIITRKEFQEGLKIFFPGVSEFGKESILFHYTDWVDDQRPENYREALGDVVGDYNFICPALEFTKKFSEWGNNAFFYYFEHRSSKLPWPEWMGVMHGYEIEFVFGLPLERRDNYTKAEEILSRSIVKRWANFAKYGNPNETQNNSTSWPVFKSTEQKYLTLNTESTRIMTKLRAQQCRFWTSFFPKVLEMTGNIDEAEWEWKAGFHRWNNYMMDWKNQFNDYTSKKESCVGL
assay-comment: BChE inhibition, Ellman's method
Type: biochemical
Description: The assay was performed in two steps. All enzymes were obtained from Sigma-Aldrich (Steinheim, Germany). Ellman’s reagent and the substrates were obtained from Fluka (Buchs, Switzerland). The chemicals used to prepare the buffer solution were purchased from Merck (Darmstadt, Germany). The enzyme inhibitory activities of the synthesized compounds were investigated by applying Ellman’s method. […] All readings were adjusted with blank-reading. […]
pIC50: −log10 of the molar value.
Here the recorded pIC50 is given for each entry.
assay-metric: pIC50

- O=C(CSC(=S)N1CCN(Cc2ccc(C(F)(F)F)cc2)CC1)Nc1c2ccccc2nc2ccccc12: 7.85
- Nc1c2ccccc2nc2ccccc12 [Aminoacridine, 9-aminoacridine, reference compound]: 6.66

----------
tgt: BChE (Human) (Homo sapiens)
Construct: purchased Sigma-Aldrich (Steinheim, Germany)
assay-comment: BChE inhibition, Ellman's method
Type: biochemical
reported-conditions: 10^-6 M
assay-metric: BChE (Human) inhibitory activity (%) ± SD

• O=C(CSC(=S)N1CCN(c2ccc(Cl)cc2)CC1)Nc1c2ccccc2nc2ccccc12 = 35.00±0.87%
• CN(C)CCCN1CCN(C(=S)SCC(=O)Nc2c3ccccc3nc3ccccc23)CC1 = 45.26±0.85%
• O=C(CSC(=S)N1CCN(C(c2ccccc2)c2ccccc2)CC1)Nc1c2ccccc2nc2ccccc12 = 81.25±2.08%
• O=C(CSC(=S)N1CCN(CCO)CC1)Nc1c2ccccc2nc2ccccc12 = 30.62±1.28%
• CN(C)CCN1CCN(C(=S)SCC(=O)Nc2c3ccccc3nc3ccccc23)CC1 = 55.00±1.11%
• CC1CCCCN1C(=S)SCC(=O)Nc1c2ccccc2nc2ccccc12 (stereo not shown) = 38.35±0.88%
• Cc1ccc(CN2CCN(C(=S)SCC(=O)Nc3c4ccccc4nc4ccccc34)CC2)cc1 = 41.37±0.95%

----------
tgt: AChE (Electrophorus electricus) (Electrophorus electricus, UniProt O42275)
Construct: purchased Sigma-Aldrich (Steinheim, Germany)
Sequence (O42275 24-633): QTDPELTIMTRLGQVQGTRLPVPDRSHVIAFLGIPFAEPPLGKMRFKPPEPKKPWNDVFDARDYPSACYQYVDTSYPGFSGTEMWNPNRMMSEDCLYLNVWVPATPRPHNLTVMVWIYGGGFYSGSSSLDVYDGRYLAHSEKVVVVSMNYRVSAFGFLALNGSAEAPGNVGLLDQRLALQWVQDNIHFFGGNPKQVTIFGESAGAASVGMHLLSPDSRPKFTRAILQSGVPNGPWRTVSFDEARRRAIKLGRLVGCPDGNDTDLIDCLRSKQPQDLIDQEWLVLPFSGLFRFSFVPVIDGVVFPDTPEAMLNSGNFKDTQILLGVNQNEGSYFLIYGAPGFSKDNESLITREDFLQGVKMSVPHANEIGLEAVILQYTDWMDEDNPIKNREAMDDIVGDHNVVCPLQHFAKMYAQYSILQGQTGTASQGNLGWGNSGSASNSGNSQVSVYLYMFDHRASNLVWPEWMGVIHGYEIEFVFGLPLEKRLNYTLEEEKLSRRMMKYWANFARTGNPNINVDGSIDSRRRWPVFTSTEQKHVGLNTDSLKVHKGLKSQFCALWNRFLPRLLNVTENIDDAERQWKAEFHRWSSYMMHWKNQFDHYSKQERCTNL
assay-comment: AChE inhibition, Ellman's method
Assay type: biochemical
reported-conditions: 10^-4 M
Recorded AChE (Electrophorus electricus) inhibitory activity (%) ± SD, one value per entry.
assay-metric: AChE (Electrophorus electricus) inhibitory activity (%) ± SD

- O=C(CSC(=S)N1CCOCC1)Nc1c2ccccc2nc2ccccc12 [Compound 4r]: 37.33
- CN(C)CCCN1CCN(C(=S)SCC(=O)Nc2c3ccccc3nc3ccccc23)CC1 [Compound 4b]: 32.41
- O=C(CSC(=S)N1CCN(c2ccc(Cl)cc2)CC1)Nc1c2ccccc2nc2ccccc12 [Compound 4i]: 35.91
- CN(C)CCN1CCN(C(=S)SCC(=O)Nc2c3ccccc3nc3ccccc23)CC1 [Compound 4a]: 17.03
- O=C(CSC(=S)N1CCN(C2CCCCC2)CC1)Nc1c2ccccc2nc2ccccc12 [Compound 4l]: 3.90
- O=C(CSC(=S)N1CCN(CCO)CC1)Nc1c2ccccc2nc2ccccc12 [Compound 4e]: 7.09
- Cc1ccc(CN2CCN(C(=S)SCC(=O)Nc3c4ccccc4nc4ccccc34)CC2)cc1 [Compound 4o]: 25.30
- O=C(CSC(=S)N1CCC(Cc2ccccc2)CC1)Nc1c2ccccc2nc2ccccc12 [Compound 4u]: 25.88
- O=C(CSC(=S)N1CCN(Cc2ccccc2)CC1)Nc1c2ccccc2nc2ccccc12 [Compound 4k]: 8.62
- O=C(CSC(=S)N1CCCCC1)Nc1c2ccccc2nc2ccccc12 [Compound 4s]: 32.17
- O=C(CSC(=S)N1CCN(c2ncccn2)CC1)Nc1c2ccccc2nc2ccccc12 [Compound 4j]: 2.88
- O=C(CSC(=S)N1CCN(c2ccc([N+](=O)[O-])cc2)CC1)Nc1c2ccccc2nc2ccccc12 [Compound 4d]: 31.64
